Measured GI50 accompanies every entry in the list below.
Tested on: HOP-92
test name: NCI tumour cell line growth inhibition, 48 h
Active and inactive are the calls of the source. No stated cut-off is given here; in the data, active = GI50 up to about 1.1 µM and inactive = higher.

Please look at this compound and report its GI50: c1ccc(N/N=N/c2ccc(-c3nc4ccccc4o3)cc2)nc1 54.6 µM (inactive)

Please indicate GI50 recorded for OC1(c2ccc3ccccc3c2)c2c(c3ccccc3c3ccccc23)C2=NCCN21 (stereo unspecified) 7.18 µM (inactive)

Name the recorded GI50 of the compound listed here: CCCCCCc1cc2cc(-c3cn4ccsc4n3)c(=O)oc2cc1O > 100 µM (inactive)

Quick one: give measured GI50 for O=[N+]([O-])c1ccc(S(=O)(=O)n2c3ccc(Br)cc3c3nc4ccccc4nc32)cc1 > 100 µM (inactive)

Answer with the recorded GI50 of CC1=Cc2cccc(C)c2C(=O)C1=O only. 1.49 µM (inactive)

Output measured GI50 for this item: CC1=C(c2cc(C(=O)Nc3cc(C)ccc3C)nc(N)n2)Sc2ccccc2N1 > 100 µM (inactive)

Answer with reported GI50 of CC(C)COC(=O)N1N=NC2C3OC(CC3=O)C21 (stereo unspecified) > 100 µM (inactive)

Answer with reported GI50 of O=C(NCCO)c1ccc(Cl)cc1 > 100 µM (inactive)

Recall and state the measured GI50 for CC(=O)c1sc2c(c1O)c(=O)n(-c1ccccc1)c(=S)n2-c1ccccc1 . > 100 µM (inactive)

Could you please provide reported GI50 for O=c1ccn2n1CCCCC2 ? Thanks! > 100 µM (inactive)

Find the measured GI50 of O=[N+]([O-])c1ccc2ncccc2c1CCc1c([N+](=O)[O-])ccc2ncccc12 and report it. > 35.3 µM (inactive)

----------
Tested on: MCF7
test name: NCI tumour cell line growth inhibition, 48 h
The source made the active and inactive calls. Cut-off read from the data, not from the text of the source: active = GI50 up to about 1.1 µM and inactive = higher.
outcome measure: GI50

{"columns": ["compound", "measured on", "outcome measure", "measured value"],
 "data": [
  ["CN(C)c1ccc(/C=C(/NC(=O)c2ccccc2)C(=O)Nc2ccccc2C(=O)O)cc1", "MCF7", "GI50", "> 100 µM (inactive)"],
  ["Cc1c2cc[n+](C)c(C)c2cc2c1[nH]c1ccccc12", "MCF7", "GI50", "5.74 µM (inactive)"],
  ["COc1cccc(-c2cc(=O)c3ccccc3o2)c1N", "MCF7", "GI50", "> 100 µM (inactive)"]
]}

State recorded GI50 with MCF7, entry COC(C)(C)C1(O)CC[C@@H](C)CC1=O (stereo partly specified) , no comment. > 100 µM (inactive)

Lab note: MCF7 assay, enter GI50 for CCCCCCc1cc2cc(-c3cn4ccsc4n3)c(=O)oc2cc1O here 99.5 µM (inactive)

Answer briefly: GI50 recorded on MCF7 for CCC1c2[nH]c3ccccc3c2C[C@H]2C(=O)NC(CCC(=O)OC(C)(C)C)C(=O)N12 (stereo partly specified) 42.4 µM (inactive)

----------
System: NCI/ADR-RES
test name: NCI tumour cell line growth inhibition, 48 h
Active and inactive are the calls of the source. Cut-off read from the data, not from the text of the source: active = GI50 up to about 1.1 µM and inactive = higher.
Respond only with the outcome that fits, drawn from active, inactive

# lookup: test call for O=C1c2ccccc2C(=O)N1C(=S)c1ccccc1 inactive

// outcome(item) with item = CCOC(=O)N/N=C/C1=NN(C(=O)OCC)[S+]([O-])C1C (configuration not stated) inactive

Assay outcome for COCOc1cc(OC)ccc1C/C(=N/O)C(=O)OC : what was it? inactive

Per the assay record, what outcome was assigned to NNC(=O)c1nnn(CCc2ccccc2)c1C(=O)NN ? inactive

// outcome(item) with item = COc1ccccc1C1SCC(=O)N1c1ccc(-n2c(-c3ccccc3)nc3ccccc3c2=O)cc1 (configuration not stated) inactive

----------
# GI50 listing for each entry below
System: DMS-273
test name: NCI tumour cell line growth inhibition, 48 h
Activity calls are given as the source filed them. Rule as the data show it: active = GI50 up to about 1.1 µM and inactive = higher.

Consider the following illustrative entries.
{"columns": ["compound", "GI50"],
 "data": [
  ["CC(=O)C(O)N1C(=O)C=CC1=O (stereo unspecified)", "14.7 µM (inactive)"],
  ["COC(=O)[C@H](CC(C)C)NC(=O)[C@H](Cc1ccccc1)N1CC2C=CC1C2 (stereo partly specified)", "> 100 µM (inactive)"],
  ["O=c1/c(=C/c2ccccc2F)sc2nc3ccccc3n12", "> 100 µM (inactive)"]
]}

# next compound below
Please look at this compound and report its GI50: COC(=O)Nc1nc2cc(Br)ccc2[nH]1 16 µM (inactive)

----------
Entries and their GI50
Test system: SF-539
test name: NCI tumour cell line growth inhibition, 48 h
The source made the active and inactive calls. Cut-off read from the data, not from the text of the source: active = GI50 up to about 1.1 µM and inactive = higher.

State, in one line, measured GI50 of CCOC(=O)N/N=C/C1=NN(C(=O)OCC)[S+]([O-])C1C (centres undefined) > 100 µM (inactive)

Give the reported value of GI50 for this record: O=S(=O)(c1ccccc1)n1c(C(O)c2ccccc2)cc2ccccc21 (centres undefined) 16.7 µM (inactive)

----------
Tested on: SNB-19
test name: NCI tumour cell line growth inhibition, 48 h
Activity calls are given as the source filed them. Rule as the data show it: active = GI50 up to about 1.1 µM and inactive = higher.
outcome measure: GI50

# count of solved cases: 8
{"columns": ["compound", "GI50"],
 "data": [
  ["c1ccc(-c2cc(-c3cccs3)c(-c3cccs3)o2)cc1", "> 100 µM (inactive)"],
  ["COc1cc2c(c(OC)c1OC)-c1ccc(SC)c(=O)cc1C(CC(=O)Oc1cccc(C#N)c1)C2 (centres undefined)", "0.678 µM (active)"],
  ["COC1=CC(=Nc2c(Cl)cc(Cl)cc2OC(=O)c2ccc([N+](=O)[O-])cc2)C=C(OC)C1=O", "16.4 µM (inactive)"],
  ["CC(C)C[C@H]1[C@@H](OCc2ccccc2)COS(=O)(=O)N1[C@H](C)c1ccccc1", "> 46 µM (inactive)"],
  ["O=[N+]([O-])c1cc(-c2nc(-c3ccccc3)c(-c3ccccc3)[nH]2)c(O)c([N+](=O)[O-])c1", "36.9 µM (inactive)"],
  ["Cc1c2cc[n+](C)c(C)c2cc2c1[nH]c1ccccc12", "0.8 µM (active)"],
  ["c1ccc(/N=C2\\S/C(=N\\C3CCCCC3)N(C3CCCCC3)\\C2=N/c2ccccc2)cc1", "> 100 µM (inactive)"],
  ["Cc1cc(Cl)ccc1NC1=NC(=O)C(CC(=O)Nc2cccc(Cl)c2)S1 (centres undefined)", "> 100 µM (inactive)"]
]}

Shift focus to the following entry.
Supply GI50 value. Item: COc1cccc(-c2cc(=O)c3ccccc3o2)c1N 51.9 µM (inactive)

----------
List of GI50 values.
Tested on: COLO 205
test name: NCI tumour cell line growth inhibition, 48 h
Calls of active or inactive are those of the source. Rule as the data show it: active = GI50 up to about 1.1 µM and inactive = higher.

{"columns": ["compound", "GI50"],
 "data": [
  ["O=S(=O)(Oc1ccc2oc3ccccc3c2c1-c1c(OS(=O)(=O)C(F)(F)F)ccc2oc3ccccc3c12)C(F)(F)F", "> 92.3 µM (inactive)"]
]}

Indicate its recorded GI50; the compound in question is COC1N(C2CC(O)C(CO)O2)C(=O)NC(=O)C1(F)Br (centres undefined) 21.6 µM (inactive)

----------
System: ACHN
test name: NCI tumour cell line growth inhibition, 48 h
The source made the active and inactive calls. No stated cut-off is given here; in the data, active = GI50 up to about 1.1 µM and inactive = higher.
Measured GI50 of individual entries

Previously resolved entries follow.
{"columns": ["molecule", "outcome measure", "measured value"],
 "data": [
  ["O=C1CCCCC[C@]12SC[C@H]1CON=C12", "GI50", "27.8 µM (inactive)"],
  ["Fc1ccc(C(=C2CCN(CCc3ccc4[nH]c(=S)[nH]c4c3)CC2)c2ccc(F)cc2)cc1", "GI50", "8.83 µM (inactive)"]
]}

Look up GI50 of C=C1CC2(CC(c3ccccc3OC)OC(c3ccccc3OC)C2)OC1=O (stereo unspecified) and report it. 2.29 µM (inactive)

// Input: CCOC(=O)CNC1C(NC(C)=O)C(OC)OC2COC(c3ccccc3)OC21 (stereo unspecified) . Output its GI50 only. > 100 µM (inactive)

Assign GI50 to the following record: O=c1[nH]c2ccc(Cl)cc2c2oc(-c3ccccc3)nc12 24.5 µM (inactive)

Give GI50 for COc1ccc(N2C(=O)C(C)SC2c2cc3cc(Br)ccc3nc2Cl)cc1 (stereo unspecified) 48.8 µM (inactive)

For the molecule OC1(c2ccc3ccccc3c2)c2c(c3ccccc3c3ccccc23)C2=NCCN21 (stereo unspecified) , give its reported GI50. 8.22 µM (inactive)

Entry CSc1ncnc2c1ncn2CCC(=O)O needs its GI50 filled in; supply it. > 100 µM (inactive)

Using known records, supply GI50 for CCOC(=O)C1S/C(=N/c2ccc(Cl)cc2C)N=C1C (stereo unspecified) 19.8 µM (inactive)

Could you please provide reported GI50 for CC1(C)CCC(C)(C)c2c1ccc(O)c2Cc1c(O)ccc2c1C(C)(C)CCC2(C)C ? Thanks! 1.74 µM (inactive)

Tell us which GI50 value is on record for O=C1C=C(NCCc2ccccc2)c2ccccc2C1=O 2.82 µM (inactive)

Data provenance is ChEMBL document CHEMBL1201862.
